Below: a set of entries, each annotated with reported pIC50.
system.name: Recombinant JAK1 (Amino acids 850-1154) (Homo sapiens)
Construct: Recombinant JAK1 (Amino acids 850-1154; NM_002227.2)
Sequence (P23458 850-1154): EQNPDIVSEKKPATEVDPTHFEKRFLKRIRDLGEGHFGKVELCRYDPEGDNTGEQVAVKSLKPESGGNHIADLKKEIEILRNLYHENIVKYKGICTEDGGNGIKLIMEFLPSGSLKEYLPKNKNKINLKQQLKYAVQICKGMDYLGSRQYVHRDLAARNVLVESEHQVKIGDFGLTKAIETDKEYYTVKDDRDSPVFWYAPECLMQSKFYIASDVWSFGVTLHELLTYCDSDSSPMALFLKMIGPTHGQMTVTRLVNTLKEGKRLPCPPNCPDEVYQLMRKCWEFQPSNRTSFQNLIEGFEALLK
method.description: Kinase-Glo Luminescent Kinase Assay, recombinant JAK1
experimental.setup: 200 μg/ml Poly Glu-Tyr (4:1), ATP 1 uM, 90 min room temperature, luminescence
pIC50: −log10 of the molar value.

Example entries begin here.
[
  {
    "compound": "CNC(=O)C1CCCN(c2ccnc3cnc4[nH]ccc4c23)C1 (stereo not shown) [Ex. 71]",
    "system.name": "Recombinant JAK1 (Amino acids 850-1154) (Homo sapiens)",
    "result": "< 7.70"
  },
  {
    "compound": "CC(C)CC(=O)N1CCCC(c2ncnc3cnc4[nH]ccc4c23)C1 (stereo not shown) [Ex. 21]",
    "system.name": "Recombinant JAK1 (Amino acids 850-1154) (Homo sapiens)",
    "result": "< 7.70"
  },
  {
    "compound": "CC(C)CNC(=O)C1CCCN(c2ccnc3cnc4[nH]ccc4c23)C1 (stereo not shown) [Ex. 67]",
    "system.name": "Recombinant JAK1 (Amino acids 850-1154) (Homo sapiens)",
    "result": "< 7.70"
  }
]

[ask] Sample CN(C)C(=O)N1CCCC(c2ccnc3cnc4[nH]ccc4c23)C1 (stereo not shown) [Ex. 47] — what was its pIC50?
[reply] 7.70 to 9.00

====

Below: a set of entries, each annotated with reported pIC50.
system.name: Recombinant JAK3 (Amino acids 781-1124) (Homo sapiens)
Construct: JAK3 (Amino acids 781-1124; NM_000215.3); made in house; host or cells: baculovirus expression system (Bac-to-Bac)
Sequence (P52333 781-1124): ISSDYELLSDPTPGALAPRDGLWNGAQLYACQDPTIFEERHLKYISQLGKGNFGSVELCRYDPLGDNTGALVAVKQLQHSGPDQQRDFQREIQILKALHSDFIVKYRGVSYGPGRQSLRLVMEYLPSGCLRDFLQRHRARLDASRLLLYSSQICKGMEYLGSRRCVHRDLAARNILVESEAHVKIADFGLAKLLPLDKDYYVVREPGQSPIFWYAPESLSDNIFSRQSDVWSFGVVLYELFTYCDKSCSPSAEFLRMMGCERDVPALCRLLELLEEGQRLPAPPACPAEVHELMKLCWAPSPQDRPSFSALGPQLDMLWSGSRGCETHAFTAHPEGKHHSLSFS
method.description: Kinase-Glo Luminescent Kinase Assay, recombinant JAK3
Format: biochemical
experimental.setup: 200 μg/ml Poly Glu-Tyr (4:1), ATP 1 uM, 90 min room temperature, luminescence
pIC50: −log10 of the molar value.

Example entries begin here.
[
  {
    "molecule": "O=S(=O)(C1CC1)N1CCCC(c2ccnc3cnc4[nH]ccc4c23)C1 (centres unmarked) [Ex. 6]",
    "result": "7.70 to 9.00"
  },
  {
    "molecule": "O=C(CC(F)(F)F)N1CCC[C@@H](c2ncnc3cnc4[nH]ccc4c23)C1 [Ex. 24A]",
    "result": "< 7.70"
  },
  {
    "molecule": "O=S(=O)(C1CC1)N1CCCC(c2ncnc3cnc4[nH]ccc4c23)C1 (centres unmarked) [Ex. 31]",
    "result": "< 7.70"
  },
  {
    "molecule": "N#CCC(=O)N1CCCC(c2ccnc3cnc4[nH]ccc4c23)C1 (centres unmarked) [Ex. 1]",
    "result": "7.70 to 9.00"
  },
  {
    "molecule": "CC(C)(C)C(=O)N1CCCC(c2ncnc3cnc4[nH]ccc4c23)C1 (centres unmarked) [Ex. 28]",
    "result": "< 7.70"
  }
]

[ask] Sample O=S(=O)(NC1CCCN(c2ccnc3cnc4[nH]ccc4c23)C1)C(F)(F)F (centres unmarked) [Ex. 81] — what was its pIC50?
[reply] 7.70 to 9.00

[ask] Sample CS(=O)(=O)N1CCC[C@H](c2ccnc3cnc4[nH]ccc4c23)C1 [Ex. 10A] — what was its pIC50?
[reply] < 7.70

[ask] Sample CCS(=O)(=O)N1CCC(c2ccnc3cnc4[nH]ccc4c23)C1 (centres unmarked) [Ex. 19] — what was its pIC50?
[reply] < 7.70
